- System: HCT-15 colon
- protocol-summary: NCI-60 one-dose screen, 48 h (100 = growth as untreated, 0 = no growth, -100 = all killed)
- experimental-parameters: 10 µM unless noted
The panel holds about 83,000 compounds, 20% with a hit somewhere; the sample as a whole holds those more often.
growth less than 60% is Fulfilled; growth greater than or equal to 60% is Not fulfilled.

> print(dat)
                                   compound  target.system  category.label
1  O=Cc1cncc(-c2ccc3ncnc(N4CCc5cc(F)c(Cl)cc54)c3c2)c1   HCT-15 colon       Fulfilled
2  CCN1C(=O)N(CC)C2NNC(Sc3c(C(=O)O)c4ccccc4n(CCC(C)C)c3=O)=NC21 (stereo not given)   HCT-15 colon       Fulfilled
3  COC(=O)c1cc(C(=O)C(F)(F)F)n2c3ccccc3c3ccccc3c12   HCT-15 colon   Not fulfilled
4  O=C(Cn1c(-c2ccccc2)nc2ccccc21)N=Nc1c(O)[nH]c2ccc(Br)cc12   HCT-15 colon       Fulfilled

----------
- Test system: A549/ATCC NSCLC
- protocol-summary: NCI-60 one-dose screen, 48 h (100 = growth as untreated, 0 = no growth, -100 = all killed)
- experimental-parameters: 10 µM unless noted
About 83,000 compounds went through this panel and 20% of them were active in at least one assay; those are over-represented in the sample as a whole.
Decide using growth: a value greater than or equal to 40% is T, a smaller one is F.

> print(dat)
                                    compound  category.label
 1  COc1ccc2oc(=O)c(-c3csc(N/N=C(\C)c4cc(OC)c(OC)c(OC)c4)n3)cc2c1               T
 2  CCCCNc1ccc2c3c(cccc13)C(=O)N(NCC(O)COc1ccc3c(C)cc(=O)oc3c1)C2=O (configuration not stated)               T
 3   COc1ccc(Nc2nnc(-c3c[nH]c4ccccc34)o2)cc1               T
 4  CC(=O)c1ccc2c(N)c(C(=O)Nc3ccc(C(F)(F)F)cc3)sc2n1               T
 5  CC1=NN(C2=NC(=O)C(CC(=O)Nc3ccccc3C(F)(F)F)S2)C(c2ccc(N(C)C)cc2)C1 (configuration not stated)               F
 6  Cc1ccc(Nc2nnc(-c3c[nH]c4ccccc34)o2)c(C)c1               F
 7            Cc1nc2sccn2c1-c1nnc(SCC(C)C)o1               T
 8  C[C@@H](Nc1c(C#N)cnc2ccc(-c3cnc4[nH]ncc4c3)cc12)c1ccccc1               F
 9  C/C(=N/O)c1ccc(NC(=O)CSc2nnc(-c3ccc(-c4nc5ccc(Cl)cc5[nH]4)cc3)o2)cc1               F
10  Nc1nnc(-c2cncc(Br)c2)c(-c2c[nH]c3ccc(Cl)cc23)n1               T
11  COc1ccc2[nH]cc(-c3cc4nc(-c5cn(C)c6ncc(Br)cc56)cc(N)n4n3)c2c1               F
12     Clc1ccccc1Nc1nnc(-c2c[nH]c3ccccc23)o1               F
13               C=CC[n+]1cccc2c3ccccc3ccc21               F
14  COc1ccc2[nH]cc(-c3cc(N)n4nc(-c5c[nH]c6ccccc56)cc4n3)c2c1               F
15  CS(=O)(=O)Nc1cc(-c2ccc3ncnc(Nc4ccc(OCc5cccnc5)c(Cl)c4)c3c2)cnc1Cl               T
16  Cc1ccc(C2CC(c3ccc(S(=O)(=O)NCCNc4nc(N(C)C)nc(N5CCOCC5)n4)cc3)=Nc3c(N)nc(N)nc3N2)cc1 (configuration not stated)               T
17  CN(C)c1nc(NCCNS(=O)(=O)c2ccc(C3=Nc4c(N)nc(N)nc4NC(c4ccc(Cl)cc4)C3)cc2)nc(N2CCOCC2)n1 (configuration not stated)               T
18  c1ccc(CSc2nnc(-c3ccc4nc(-c5ccccc5)[nH]c4c3)o2)cc1               F
19  Cc1oc(-c2ccccc2)nc1CN[C@@H]1C[C@@H]2C[C@H]([C@H]1C)C2(C)C               T
20  CCOC(=O)/C(F)=C/C1CC1C1CCN(C(=O)OC(C)(C)C)CC1 (configuration not stated)               T
21  COc1ccc2c(c1)N=c1c-2cc2c(O)[nH]c(=S)n2c1=O               T
22  O=C(CSc1nnc(-c2ccc(-c3nc4ccc(Cl)cc4[nH]3)cc2)o1)Nc1ccc(Cl)cc1               F
23  Cc1cccc(NCC(=O)N2CCN(c3ncnc4c3cnn4-c3ccccc3)CC2)c1               T
